Heads up, these compounds all have MIC values measured for Bacillus subtilis 168.
Express the result in µM but write the number alone.

Compound | Measurement target | Property name | Experimental result
CC[C@H](C)[C@H](NC(=O)CN)C(=O)N[C@@H](CCSC)C(=O)N[C@@H](CO)C(=O)N[C@@H](CO)C(=O)N[C@@H](CC(C)C)C(=O)N[C@@H](CCSC)C(=O)N[C@@H](CCCCN)C(=O)N[C@@H](CCCCN)C(=O)N[C@@H](CC(C)C)C(=O)N[C@@H](CCCCN)C(=O)N[C@@H](C)C(=O)N[C@@H](Cc1cnc[nH]1)C(=O)N[C@H](C(=O)N[C@@H](C)C(=O)N[C@@H](CCCCN)C(N)=O)[C@@H](C)CC [GIMSSLMKKLKAHIAK] | Bacillus subtilis 168 | MIC | 7
CC[C@H](C)[C@H](NC(=O)[C@H](CCCCN)NC(=O)CNC(=O)[C@H](CC(C)C)NC(=O)[C@@H](NC(=O)[C@H](CO)NC(=O)[C@H](CCCCN)NC(=O)[C@H](CC(C)C)NC(=O)[C@H](Cc1ccccc1)NC(=O)[C@@H]1CCCN1C(=O)[C@H](CC(C)C)NC(=O)[C@@H](N)Cc1ccccc1)[C@@H](C)CC)C(=O)N[C@@H](CC(C)C)C(N)=O [FLPFLKSILGKIL] | Bacillus subtilis 168 | MIC | 17.7

# context switch: different compound, same MIC
## Task Could you please provide reported MIC for CC[C@H](C)[C@H](NC(=O)[C@H](CO)NC(=O)[C@H](CC(C)C)NC(=O)[C@H](Cc1ccccc1)NC(=O)CN)C(=O)N[C@@H](CC(C)C)C(=O)N[C@@H](CCCCN)C(=O)N[C@@H](CCCCN)C(=O)N[C@H](C(=O)N[C@@H](CC(C)C)C(=O)N1CCC[C@H]1C(=O)N[C@@H](CCCCN)C(=O)N[C@H](C(=O)N[C@@H](CCSC)C(=O)N[C@@H](C)C(=O)N[C@@H](Cc1cnc[nH]1)C(=O)N[C@@H](CCSC)C(=O)N[C@@H](CCCCN)C(N)=O)C(C)C)C(C)C [GFLSILKKVLPKVMAHMK] ? Thanks!
## Result 0.62

###

- System: Pseudomonas aeruginosa
- Experiment: ≥ marks a high value that may be exact or a test limit, other limits are often not marked, values filed in µg/mL are converted to µM
Property name: MIC (µM)
Entry rule: numbers only, all in µM.

Compound | Measurement target | MIC (µM)
CC(C)C[C@H](NC(=O)[C@H](Cc1ccc(O)cc1)NC(=O)[C@H](CCCCN)NC(=O)[C@H](Cc1ccccc1)NC(=O)[C@H](CC(C)C)NC(=O)[C@H](CCCN=C(N)N)NC(=O)[C@H](CCCCN)NC(=O)[C@H](Cc1ccccc1)NC(=O)[C@H](CC(C)C)NC(=O)[C@H](CCCN=C(N)N)NC(=O)[C@@H](N)CCCCN)C(=O)N[C@@H](CCCN=C(N)N)C(=O)N[C@@H](CCCN=C(N)N)C(=O)N[C@@H](Cc1ccccc1)C(=O)O [KRLFKRLFKYLRRF] | Pseudomonas aeruginosa | 2.03
CC[C@H](C)[C@H](NC(=O)[C@H](CO)NC(=O)[C@H](CC(C)C)NC(=O)[C@H](Cc1ccccc1)NC(=O)CN)C(=O)N[C@@H](CC(C)C)C(=O)N[C@@H](CCCCN)C(=O)N[C@@H](CCCCN)C(=O)N[C@H](C(=O)N[C@@H](CC(C)C)C(=O)N1CCC[C@H]1C(=O)N[C@@H](CCCCN)C(=O)N[C@H](C(=O)N[C@@H](CCSC)C(=O)N[C@@H](C)C(=O)N[C@@H](Cc1cnc[nH]1)C(=O)N[C@@H](CCSC)C(=O)N[C@@H](CCCCN)C(N)=O)C(C)C)C(C)C [GFLSILKKVLPKVMAHMK] | Pseudomonas aeruginosa | 22

## Task For CC[C@H](C)[C@H](NC(=O)[C@H](C)NC(=O)[C@H](CCCCN)NC(=O)CNC(=O)[C@@H](NC(=O)[C@H](CCCCN)NC(=O)[C@@H](NC(=O)[C@H](C)NC(=O)[C@H](CCCCN)NC(=O)CNC(=O)[C@H](Cc1c[nH]c2ccccc12)NC(=O)[C@H](CCCCN)NC(=O)[C@@H](NC(=O)[C@H](C)NC(=O)[C@H](CCCCN)NC(=O)CNC(=O)[C@@H](NC(=O)[C@@H](N)CCCCN)[C@@H](C)CC)[C@@H](C)CC)[C@@H](C)CC)[C@@H](C)CC)C(N)=O [KIGKAIKWGKAIKIGKAI] , write its MIC.
## Result 33.3

## Task Quick one: give measured MIC for CC[C@H](C)[C@H](N)C(=O)N[C@@H](CC(N)=O)C(=O)N[C@@H](Cc1c[nH]c2ccccc12)C(=O)N[C@@H](CCCCN)C(=O)NCC(=O)N[C@H](C(=O)N[C@@H](C)C(=O)N[C@@H](C)C(=O)N[C@@H](CCSC)C(=O)N[C@@H](C)C(=O)N[C@@H](CCCCN)C(=O)N[C@@H](CCCCN)C(=O)N[C@@H](CC(C)C)C(=O)N[C@@H](CC(C)C)C(N)=O)[C@@H](C)CC [INWKGIAAMAKKLL]
## Result 164

###

- Tested on: Shigella dysenteriae
Quick reference: MIC of the listed items.
// note: answer is a bare numeric in µM

## Task For Shigella dysenteriae, give the measured MIC of the entry `CC[C@H](C)[C@H](NC(=O)[C@@H]1CCCN1C(=O)[C@H](CC(C)C)NC(=O)[C@@H](N)Cc1ccccc1)C(=O)N[C@H](C(=O)NCC(=O)N[C@@H](CCCCN)C(=O)N[C@@H](CC(C)C)C(=O)N[C@@H](CC(C)C)C(=O)N[C@@H](CO)C(=O)NCC(=O)N[C@@H](CC(C)C)C(=O)N[C@@H](CO)C(=O)NCC(=O)N[C@@H](CC(C)C)C(=O)N[C@@H](CO)C(N)=O)C(C)C`
## Result 12.5

## Task Give measured MIC for `CC[C@H](C)[C@H](NC(=O)[C@@H]1CCCN1C(=O)[C@H](CC(C)C)NC(=O)[C@@H](N)Cc1ccccc1)C(=O)N[C@H](C(=O)NCC(=O)N[C@@H](CCCCN)C(=O)N[C@@H](CC(C)C)C(=O)N[C@@H](CC(C)C)C(=O)N[C@@H](CO)C(=O)NCC(=O)N[C@@H](CC(C)C)C(=O)N[C@@H](CO)C(=O)NCC(=O)N[C@@H](CC(C)C)C(=O)N[C@@H](CC(C)C)C(N)=O)C(C)C` (Shigella dysenteriae).
## Result 0.922

## Task System Shigella dysenteriae. Read-out MIC. Item `CC[C@H](C)[C@H](NC(=O)[C@@H](NC(=O)[C@@H]1CCCN1C(=O)[C@H](CC(C)C)NC(=O)[C@@H](N)Cc1ccccc1)[C@@H](C)CC)C(=O)NCC(=O)N[C@@H](CCCCN)C(=O)N[C@@H](CC(C)C)C(=O)N[C@@H](CC(C)C)C(=O)N[C@@H](CO)C(=O)NCC(=O)N[C@@H](CC(C)C)C(=O)N[C@@H](CC(C)C)C(=O)O` . Report value.
## Result 14.5

###

- Test system: Bacillus subtilis 168
Property name: MIC (µM)
The figure you give is taken to be in µM; do not add the unit.

Check out these entries, answers already filled in.
Molecule | Quantity unit | MIC
CC[C@H](C)[C@H](NC(=O)[C@H](Cc1cnc[nH]1)NC(=O)[C@H](CCCCN)NC(=O)[C@H](CC(C)C)NC(=O)[C@H](CCCCN)NC(=O)[C@H](CO)NC(=O)[C@H](CCSC)NC(=O)[C@H](Cc1c[nH]c2ccccc12)NC(=O)[C@H](CCCCN)NC(=O)CN)C(=O)N[C@@H](CC(C)C)C(=O)N[C@@H](CCCCN)C(N)=O | µM | 3.7
CC[C@H](C)[C@H](NC(=O)[C@H](Cc1cnc[nH]1)NC(=O)[C@H](CCCCN)NC(=O)[C@H](CC(C)C)NC(=O)[C@H](CC(C)C)NC(=O)[C@H](CO)NC(=O)[C@H](CC(C)C)NC(=O)[C@H](Cc1c[nH]c2ccccc12)NC(=O)[C@H](CCCCN)NC(=O)CN)C(=O)N[C@@H](CC(C)C)C(=O)N[C@@H](CCCCN)C(N)=O | µM | 0.9

Below: the item to evaluate.
## Task Retrieve MIC measured for `CC[C@H](C)[C@H](NC(=O)CN)C(=O)N[C@@H](CCSC)C(=O)N[C@@H](CO)C(=O)N[C@@H](CO)C(=O)N[C@@H](CC(C)C)C(=O)N[C@@H](CCSC)C(=O)N[C@@H](CCCCN)C(=O)N[C@@H](CCCCN)C(=O)N[C@@H](CC(C)C)C(=O)N[C@@H](C)C(=O)N[C@@H](CCCCN)C(=O)N[C@H](C(=O)N[C@H](C(=O)N[C@@H](C)C(=O)N[C@@H](CCCCN)C(N)=O)[C@@H](C)CC)[C@@H](C)CC` and print it.
## Result 7

Each recorded value in this set is attributed to DBAASP.
